Source listed as patent US20250221966A1.

Molecular target: human RXFP1 (Homo sapiens)
Construct: expressed in transfected cells
Sequence (Q9HBX9 1-757): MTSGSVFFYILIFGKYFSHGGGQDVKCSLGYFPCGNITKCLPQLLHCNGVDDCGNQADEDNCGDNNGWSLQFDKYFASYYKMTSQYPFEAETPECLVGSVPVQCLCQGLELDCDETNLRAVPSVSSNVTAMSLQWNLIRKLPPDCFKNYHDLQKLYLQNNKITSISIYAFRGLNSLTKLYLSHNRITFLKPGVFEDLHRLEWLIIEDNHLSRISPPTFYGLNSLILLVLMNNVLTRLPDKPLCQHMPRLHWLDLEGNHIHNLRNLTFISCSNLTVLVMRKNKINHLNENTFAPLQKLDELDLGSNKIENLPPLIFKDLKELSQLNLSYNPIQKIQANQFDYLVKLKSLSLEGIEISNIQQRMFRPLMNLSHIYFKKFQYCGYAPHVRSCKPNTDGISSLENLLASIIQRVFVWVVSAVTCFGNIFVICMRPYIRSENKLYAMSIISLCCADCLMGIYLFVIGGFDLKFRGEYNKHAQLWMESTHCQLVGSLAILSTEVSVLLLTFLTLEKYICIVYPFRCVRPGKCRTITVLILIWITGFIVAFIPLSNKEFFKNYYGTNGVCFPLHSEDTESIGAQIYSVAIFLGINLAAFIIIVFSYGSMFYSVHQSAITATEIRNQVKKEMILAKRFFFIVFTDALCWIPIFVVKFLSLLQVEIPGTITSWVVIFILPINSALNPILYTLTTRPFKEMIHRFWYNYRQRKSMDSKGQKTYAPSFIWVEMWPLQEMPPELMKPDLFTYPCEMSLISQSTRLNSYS
Experiment: RXFP1 cAMP assay (hRXFP1 HEK293 cAMP assay, HTRF)
Type: cell-based
Conditions: HEK293 cells stably expressing human RXFP1, 30 min at room temperature, read-out: cAMP hRXFP1 HEK293 Assay EC50
READOUT_NAME: EC50 (nM)
// note: answer is a bare numeric in nM

[ask] Supply measured EC50 of COc1ccc(C2=NOC3C(O)CC(O)C23)cc1C(=O)N[C@H]1[C@@H](C(=O)Nc2ccc(F)c(C(F)(F)F)c2)[C@H]2CC[C@@H]1/C2=C\C1CC1 (some centres unmarked) [Example 413] in your reply.
[reply] 39

[ask] Supply measured EC50 of COc1ccc(C2=NOC3CC(CO)CC23)cc1C(=O)N[C@@H]1C2CCC(/C2=C/C2CC2)[C@@H]1C(=O)Nc1ccc(F)c(C(F)(F)F)c1 (single isomer, unassigned) [Example 430] in your reply.
[reply] 194

[ask] Supply measured EC50 of "COC(=O)c1cccc(-c2ccc(OC)c(C(=O)N[C@H]3[C@@H](C(=O)Nc4ccc(F)c(C(F)(F)F)c4)[C@H]4CC[C@@H]3C4=C(C)C)c2)c1" in your reply.
[reply] 150

[ask] Supply measured EC50 of COCC1CC(c2ccc(OC)c(C(=O)N[C@H]3[C@@H](C(=O)Nc4ccc(F)c(C(F)(F)F)c4)[C@H]4CC[C@@H]3C4=CC3CC3)c2)=NO1 (some centres unmarked) in your reply.
[reply] 36.6

[ask] Supply measured EC50 of COc1ccc(-c2cc(C(=O)O)ccc2F)cc1C(=O)N[C@@H]1C2CCC(/C2=C/C2CC2)[C@@H]1C(=O)NCc1ccccc1OC(F)(F)F (some centres unmarked) in your reply.
[reply] 540

----------
Target: human RXFP1 (Homo sapiens, UniProt Q9HBX9)
Construct: expressed in transfected cells
Sequence (Q9HBX9 1-757): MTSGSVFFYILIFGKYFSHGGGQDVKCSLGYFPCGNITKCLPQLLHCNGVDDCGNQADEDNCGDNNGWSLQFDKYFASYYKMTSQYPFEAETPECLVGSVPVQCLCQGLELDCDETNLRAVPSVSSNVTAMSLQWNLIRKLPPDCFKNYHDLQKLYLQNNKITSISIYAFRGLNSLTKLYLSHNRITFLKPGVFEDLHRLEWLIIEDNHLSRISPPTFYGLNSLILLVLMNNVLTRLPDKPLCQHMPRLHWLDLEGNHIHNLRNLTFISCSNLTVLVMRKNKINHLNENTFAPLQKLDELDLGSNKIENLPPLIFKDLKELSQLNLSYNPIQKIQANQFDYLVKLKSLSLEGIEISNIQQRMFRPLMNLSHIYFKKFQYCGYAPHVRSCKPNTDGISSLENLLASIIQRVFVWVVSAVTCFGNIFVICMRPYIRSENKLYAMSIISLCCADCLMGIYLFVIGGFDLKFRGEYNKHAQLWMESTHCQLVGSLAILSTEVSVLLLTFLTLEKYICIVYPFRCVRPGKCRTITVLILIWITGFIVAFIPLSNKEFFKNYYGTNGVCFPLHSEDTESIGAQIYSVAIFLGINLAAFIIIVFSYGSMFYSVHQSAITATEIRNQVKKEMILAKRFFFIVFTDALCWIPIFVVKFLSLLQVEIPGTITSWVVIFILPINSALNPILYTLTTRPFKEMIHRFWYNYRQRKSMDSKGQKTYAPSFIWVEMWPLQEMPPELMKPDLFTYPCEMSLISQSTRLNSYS
Test: RXFP1 cAMP assay (hRXFP1 HEK293 cAMP assay, HTRF)
Type: cell-based
Conditions: HEK293 cells stably expressing human RXFP1, 30 min at room temperature, read-out: cAMP hRXFP1 HEK293 Assay EC50
READOUT_NAME: EC50 (nM)
// note: answer is a bare numeric in nM

[ask] GET EC50 where system = human RXFP1 (Homo sapiens, UniProt Q9HBX9) and item = COc1ccc(C2=NOC3CS(=O)(=O)CC23)cc1C(=O)N[C@@H]1C2CCC(/C2=C/C2CC2)[C@@H]1C(=O)Nc1ccc(F)c(C(F)(F)F)c1 (single isomer, unassigned) [compound 443]
[reply] 5

[ask] GET EC50 where system = human RXFP1 (Homo sapiens, UniProt Q9HBX9) and item = COc1cc(F)c(F)cc1C(=O)N[C@@H]1C2CCC(/C2=C/C2=CCCCC2)[C@@H]1C(=O)Nc1ccc(F)c(C(F)(F)F)c1 (some centres unmarked)
[reply] 30

[ask] GET EC50 where system = human RXFP1 (Homo sapiens, UniProt Q9HBX9) and item = COc1cc(F)c(F)cc1C(=O)N[C@@H]1C2CCC(/C2=C/C2=CCOC2)[C@@H]1C(=O)Nc1ccc(F)c(C(F)(F)F)c1 (some centres unmarked)
[reply] 1100

[ask] GET EC50 where system = human RXFP1 (Homo sapiens, UniProt Q9HBX9) and item = COc1ccc(-c2cc(C(OC(=O)NC3COC3)C(F)(F)F)ccc2F)cc1C(=O)N[C@@H]1C2CCC(/C2=C/C2CC2)[C@@H]1C(=O)Nc1ccc(F)c(C(F)(F)F)c1 (some centres unmarked)
[reply] 2

[ask] GET EC50 where system = human RXFP1 (Homo sapiens, UniProt Q9HBX9) and item = COc1ccc(-c2cc(C(NC(=O)C3CCOCC3)C(=O)O)ccc2F)cc1C(=O)N[C@H]1[C@@H](C(=O)Nc2ccc(F)c(C(F)(F)F)c2)[C@H]2CC[C@@H]1/C2=C\C(C)C (some centres unmarked)
[reply] 1.3

----------
biological target: human RXFP1 (Homo sapiens, UniProt Q9HBX9); construct: expressed in transfected cells; experiment: RXFP1 cAMP assay (hRXFP1 HEK293 cAMP assay, HTRF); type: cell-based; details: HEK293 cells stably expressing human RXFP1, 30 min at room temperature, read-out: cAMP hRXFP1 HEK293 Assay EC50
READOUT_NAME: EC50 (µM)
// note: answer is a bare numeric in µM

[ask] Supply measured EC50 of COc1ccc(C2=NOC3CN(C(=O)OC(C)(C)C)CC23)cc1C(=O)N[C@H]1[C@@H](C(=O)Nc2ccc(F)c(C(F)(F)F)c2)[C@H]2CC[C@@H]1/C2=C\C1CC1 (mixture of isomers) in your reply.
[reply] 0.024

[ask] Supply measured EC50 of "COc1ccc(C2=NOC(C)(C)N2C(C)C)cc1C(=O)N[C@H]1[C@@H](C(=O)Nc2ccc(F)c(C(F)(F)F)c2)[C@H]2CC[C@@H]1/C2=C\C1CC1" in your reply.
[reply] 0.0866

[ask] Supply measured EC50 of COc1ccc(C2=NOC(C3(O)CCC3)C2)cc1C(=O)N[C@H]1[C@@H](C(=O)Nc2ccc(F)c(C(F)(F)F)c2)[C@H]2CC[C@@H]1/C2=C\C1CC1 (single isomer, unassigned) [compound 603] in your reply.
[reply] 0.112

[ask] Supply measured EC50 of COc1ccc(C2=NOC3COCC23)cc1C(=O)N[C@@H]1C2CCC(/C2=C/C2CC2)[C@@H]1C(=O)Nc1ccc(F)c(C(F)(F)F)c1 (stereo partly drawn) in your reply.
[reply] 0.17

[ask] Supply measured EC50 of "COc1ccc(-c2cc([C@H](OC(=O)NC3CC3)C(F)(F)F)ccc2F)cc1C(=O)N[C@H]1[C@@H](C(=O)Nc2ccc(F)c(C(F)(F)F)c2)[C@H]2CC[C@@H]1/C2=C\C1CCCC1" in your reply.
[reply] 0.0004

[ask] Supply measured EC50 of "COc1ccc(-c2cccnc2F)cc1C(=O)N[C@H]1[C@@H](C(=O)Nc2ccc(F)c(C(F)(F)F)c2)[C@H]2CC[C@@H]1C2=C(C)C" in your reply.
[reply] 0.59

[ask] Supply measured EC50 of C=C(C)/C=C1\C2CCC1[C@H](C(=O)Nc1ccc(F)c(C(F)(F)F)c1)[C@@H]2NC(=O)c1cc(F)c(F)cc1OC (stereo partly drawn) in your reply.
[reply] 0.07

[ask] Supply measured EC50 of COc1c(F)cc(C2=NOC3CC(O)CC23)cc1C(=O)N[C@H]1[C@@H](C(=O)Nc2ccc(F)c(C(F)(F)F)c2)[C@H]2CC[C@@H]1/C2=C\C1CCCC1 (stereo partly drawn) in your reply.
[reply] 0.0038

[ask] Supply measured EC50 of COC(=O)N1CCN(c2ccc(OC)c(C(=O)NC3C4CCC(C4=Cc4ccccc4)C3C(=O)Nc3ccc(F)c(C(F)(F)F)c3)c2)CC1 (stereo not drawn) in your reply.
[reply] 0.24

[ask] Supply measured EC50 of COc1ccc(-c2cncc(C(=O)O)c2)cc1C(=O)N[C@@H]1C2CCC(/C2=C/C(F)(F)F)[C@@H]1C(=O)Nc1ccc(F)c(C(F)(F)F)c1 (stereo partly drawn) in your reply.
[reply] 0.127

[ask] Supply measured EC50 of COc1c(F)cc(C2=NOC3CC(CO)CC23)cc1C(=O)N[C@H]1[C@@H](C(=O)NCC(C)(C)C)[C@H]2CC[C@@H]1/C2=C\C1CC1 (stereo partly drawn) in your reply.
[reply] 0.0025

[ask] Supply measured EC50 of C[C@@H](NC(=O)[C@@H]1[C@H](NC(=O)c2cc(C3=NOC4CC(CO)CC34)cc(F)c2OCC2CC2)[C@@H]2CC[C@H]1/C2=C/C1CC1)C1(C)CC1 (stereo partly drawn) in your reply.
[reply] 0.0009

[ask] Supply measured EC50 of COc1ccc(C2=NOC3COCC23)cc1C(=O)N[C@H]1[C@@H](C(=O)NC2(C#N)CCCC2)[C@H]2CC[C@@H]1/C2=C\C1CC1 (stereo partly drawn) in your reply.
[reply] 0.0061

[ask] Supply measured EC50 of "COc1ccc(-c2cc([C@H](OC(=O)NC3CC3)C(F)(F)F)ccc2F)cc1C(=O)N[C@H]1[C@@H](C(=O)Nc2ccc(F)c(C(F)(F)F)c2)[C@H]2CC[C@@H]1/C2=C\CCC(F)(F)F" in your reply.
[reply] 0.0014

[ask] Supply measured EC50 of COc1c(F)cc(-c2cnc3n2CC(O)CC3)cc1C(=O)N[C@H]1[C@@H](C(=O)Nc2ccc(F)c(C(F)(F)F)c2)[C@H]2CC[C@@H]1/C2=C\C1CC1 (stereo partly drawn) [compound 753] in your reply.
[reply] 0.0033

[ask] Supply measured EC50 of COc1ccc(-c2cnc3nn(CC(=O)O)cc3c2)cc1C(=O)N[C@@H]1C2CCC(/C2=C/C(F)(F)F)[C@@H]1C(=O)Nc1ccc(F)c(C(F)(F)F)c1 (stereo partly drawn) in your reply.
[reply] 0.011

[ask] Supply measured EC50 of COc1ccc(N2CC(CN)CC2=O)cc1C(=O)N[C@H]1[C@@H](C(=O)Nc2ccc(F)c(C(F)(F)F)c2)[C@H]2CC[C@@H]1/C2=C\C1CC1 (stereo partly drawn) in your reply.
[reply] 1.6

[ask] Supply measured EC50 of COc1ccc(-c2cc(C(NC(=O)C(F)(F)F)C(=O)O)ccc2F)cc1C(=O)N[C@@H]1C2CCC(/C2=C/C(F)(F)F)[C@@H]1C(=O)Nc1ccc(F)c(C(F)(F)F)c1 (stereo partly drawn) in your reply.
[reply] 0.003

[ask] Supply measured EC50 of COc1c(C)cc(C2=NOC3CC(CO)CC23)cc1C(=O)N[C@H]1[C@@H](C(=O)Nc2ccc(F)c(C(F)(F)F)c2)[C@H]2CC[C@@H]1/C2=C\C1CC1 (stereo partly drawn) in your reply.
[reply] 0.0041

[ask] Supply measured EC50 of CCOC(=O)C(NC(=O)C1CCOCC1)c1cnn(-c2ccc(OC)c(C(=O)N[C@@H]3C4CCC(/C4=C/C(F)(F)F)[C@@H]3C(=O)Nc3ccc(F)c(C(F)(F)F)c3)c2)c1 (stereo partly drawn) in your reply.
[reply] 0.169

[ask] Supply measured EC50 of "COc1ccc(-c2c(C)noc2C)cc1C(=O)N[C@H]1[C@@H](C(=O)Nc2ccc(F)c(C(F)(F)F)c2)[C@H]2CC[C@@H]1C2=C(C)C" in your reply.
[reply] 1.6
